The reported numbers originate from ChEMBL document CHEMBL1201862.

Entries annotated with measured IC50
target: Calpain-2 catalytic subunit (Sus scrofa); experiment: pig calpain II inhibitor potency, dose response, biochemical, fluorogenic peptide substrate (AID 1420); assay type: functional
Sequence (P43367 whole entry): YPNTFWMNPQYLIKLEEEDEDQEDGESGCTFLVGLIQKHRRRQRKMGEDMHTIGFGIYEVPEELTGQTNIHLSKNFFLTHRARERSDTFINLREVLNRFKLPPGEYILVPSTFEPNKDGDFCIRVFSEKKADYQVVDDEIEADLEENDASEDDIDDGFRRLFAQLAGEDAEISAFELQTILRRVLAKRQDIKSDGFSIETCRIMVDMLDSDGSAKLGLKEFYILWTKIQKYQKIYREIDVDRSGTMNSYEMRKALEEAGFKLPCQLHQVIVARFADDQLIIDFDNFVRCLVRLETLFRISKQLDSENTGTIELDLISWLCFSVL
MEASURE NAME: IC50

Cc1oc2c(c1C(=O)c1ccc(Cl)cc1)C(=O)C(=O)c1ccccc1-2 | < 0.4 µM (not active)
O=C(O)c1cccc(Cn2c(Cl)c(/C=N/NC(=O)c3cc4ccccc4cc3O)sc2=O)c1 | > 50 µM (not active)
COc1ccc(S(=O)(=O)N2CCCCC2)cc1NC(=O)CN(C)C1CCCCC1 | 10.8 µM (not active)
C=C(C)COc1ccc(-c2n[nH]cc2Oc2cccc(OC)c2)c(O)c1 | 7.92 µM (not active)
NC(=O)c1ccc(-n2nnnc2SCC(=O)Nc2ccccc2-c2ccccc2)cc1 | 5.14 µM (not active)
Cn1c(NCc2ccco2)nc2c1c(=O)n(Cc1ccc(Br)cc1)c(=O)n2C | 2.84 µM (not active)
COc1ccc(OC)c(C(c2nnnn2C2CCCC2)N2CCN(c3ccccc3F)CC2)c1 (stereo not drawn) | 1.31 µM (not active)
Cc1nc(C)n(CC(O)COc2ccc(C(=O)c3ccccc3)cc2)n1 (stereo not drawn) | 13.4 µM (not active)

---

molecular target: Hexokinase HKDC1 (Homo sapiens, UniProt Q2TB90); test: SAR analysis of small molecule inhibitors of hexokinase domain containing I (HKDC1). [Related pubchem assays (depositor defined):AID493160, AID493190]; type: functional
Sequence (Q2TB90 whole entry, the tested form may be a part): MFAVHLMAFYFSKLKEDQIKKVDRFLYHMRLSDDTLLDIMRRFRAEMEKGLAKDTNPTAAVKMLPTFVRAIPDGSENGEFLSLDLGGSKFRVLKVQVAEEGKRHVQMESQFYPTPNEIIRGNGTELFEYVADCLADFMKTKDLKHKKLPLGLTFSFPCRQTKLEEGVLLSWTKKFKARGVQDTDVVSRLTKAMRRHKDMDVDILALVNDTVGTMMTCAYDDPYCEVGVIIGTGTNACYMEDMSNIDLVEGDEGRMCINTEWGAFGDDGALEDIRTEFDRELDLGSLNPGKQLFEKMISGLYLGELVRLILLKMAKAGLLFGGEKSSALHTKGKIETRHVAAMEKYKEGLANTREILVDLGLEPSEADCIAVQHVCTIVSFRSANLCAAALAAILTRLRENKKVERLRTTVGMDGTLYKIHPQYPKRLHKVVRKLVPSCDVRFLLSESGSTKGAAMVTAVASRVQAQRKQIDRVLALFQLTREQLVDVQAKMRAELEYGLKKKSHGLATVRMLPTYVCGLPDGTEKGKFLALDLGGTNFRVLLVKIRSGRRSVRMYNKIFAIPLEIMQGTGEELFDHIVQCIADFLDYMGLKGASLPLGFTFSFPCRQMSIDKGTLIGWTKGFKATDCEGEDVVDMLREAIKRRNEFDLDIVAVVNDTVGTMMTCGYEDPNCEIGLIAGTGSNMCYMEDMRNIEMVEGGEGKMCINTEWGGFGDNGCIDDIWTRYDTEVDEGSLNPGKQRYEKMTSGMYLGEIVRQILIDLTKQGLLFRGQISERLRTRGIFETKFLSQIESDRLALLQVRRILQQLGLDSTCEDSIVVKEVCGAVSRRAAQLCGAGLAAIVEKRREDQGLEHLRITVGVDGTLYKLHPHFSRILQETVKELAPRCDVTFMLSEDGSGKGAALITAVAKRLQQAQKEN
Active and inactive are the calls of the source.
Classes used: y = active, n = inactive

O=c1c2ccccc2nc(/C=C/c2ccccc2)n1CCc1ccccc1 | n
Cc1ccc(S(=O)(=O)Nc2cc(SCC(=O)O)c(O)c3ccccc23)cc1 | y
Cc1ccc(C)c(S(=O)(=O)Nc2cccc3ccccc23)c1 | n
O=c1c2ccccc2nc(/C=C/c2cccnc2)n1Cc1ccccc1 | n
O=S(=O)(Nc1ccc(O)c2ccccc12)c1ccc(Cl)cc1 | y

---

Entries annotated with measured AC50
target: Acyl-homoserine lactone acylase PvdQ (Pseudomonas aeruginosa (strain LESB58), UniProt Q9I194); assay: P. aeruginosa PvdQ acylase inhibitors, dose response, biochemical, fluorescence, plate reader and imaging, cherry-picks (AID 493231)
Sequence (Q9I194 24-193 limits assumed): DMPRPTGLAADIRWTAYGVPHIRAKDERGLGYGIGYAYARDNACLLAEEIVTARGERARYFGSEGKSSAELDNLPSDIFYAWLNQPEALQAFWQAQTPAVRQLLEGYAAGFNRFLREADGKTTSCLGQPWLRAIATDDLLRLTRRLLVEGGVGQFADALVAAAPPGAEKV
Sequence (Q9I194 217-762 limits assumed): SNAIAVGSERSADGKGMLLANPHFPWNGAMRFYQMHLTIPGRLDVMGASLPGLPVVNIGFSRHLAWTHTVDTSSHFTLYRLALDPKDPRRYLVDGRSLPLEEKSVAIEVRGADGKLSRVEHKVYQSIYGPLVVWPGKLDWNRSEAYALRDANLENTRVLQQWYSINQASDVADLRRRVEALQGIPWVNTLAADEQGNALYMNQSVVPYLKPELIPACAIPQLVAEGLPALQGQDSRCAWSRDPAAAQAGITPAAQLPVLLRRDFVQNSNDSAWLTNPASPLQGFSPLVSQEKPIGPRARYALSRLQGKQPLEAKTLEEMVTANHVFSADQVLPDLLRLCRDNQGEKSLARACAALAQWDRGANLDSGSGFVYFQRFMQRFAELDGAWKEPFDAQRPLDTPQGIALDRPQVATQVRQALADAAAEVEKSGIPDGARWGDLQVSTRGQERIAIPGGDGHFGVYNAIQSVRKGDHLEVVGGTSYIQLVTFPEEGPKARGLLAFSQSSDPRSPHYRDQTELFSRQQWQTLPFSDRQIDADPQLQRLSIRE
The source made the active and inactive calls.
MEASURE NAME: AC50

CCOC(=O)/C=C(\C)Sc1cc(=O)oc2ccccc12 | 8.71 µM (active)
CSC1=N/C(=C\C=C\c2cccs2)C(=O)S1 | 3.5 µM (active)
Cc1cc(NC(=O)c2ccc3c(c2)OCCO3)no1 | 49.6 µM (active)
c1ccc2cc(-c3csnn3)ccc2c1 | 75.6 µM (active)

---

target: Luciferin 4-monooxygenase (Photinus pyralis, UniProt P08659); experiment: firefly luciferase enzyme inhibitors, dose response, biochemical, luminescence (AID 1891)
Sequence (P08659 whole entry): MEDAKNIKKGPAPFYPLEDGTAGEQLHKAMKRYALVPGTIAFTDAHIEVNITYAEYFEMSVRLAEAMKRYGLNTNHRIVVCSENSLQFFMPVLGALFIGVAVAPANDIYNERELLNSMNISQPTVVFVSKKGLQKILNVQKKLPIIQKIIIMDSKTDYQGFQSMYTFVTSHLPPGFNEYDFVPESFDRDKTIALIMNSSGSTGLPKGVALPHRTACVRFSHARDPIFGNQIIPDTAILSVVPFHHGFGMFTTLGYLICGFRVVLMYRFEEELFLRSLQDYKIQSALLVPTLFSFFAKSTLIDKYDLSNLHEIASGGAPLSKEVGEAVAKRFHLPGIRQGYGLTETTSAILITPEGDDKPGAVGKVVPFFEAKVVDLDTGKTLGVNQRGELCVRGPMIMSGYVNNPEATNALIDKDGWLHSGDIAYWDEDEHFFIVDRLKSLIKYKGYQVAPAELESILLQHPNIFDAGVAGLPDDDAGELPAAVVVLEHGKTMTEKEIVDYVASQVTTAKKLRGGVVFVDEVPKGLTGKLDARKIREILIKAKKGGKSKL
Calls of active or inactive are those of the source.
Entries annotated with measured EC50
MEASURE NAME: EC50

O=C(Nc1ccccc1C(=O)N/N=C/c1ccco1)c1ccc(F)cc1 | 0.295 µM (active)
Cc1cccc(NC(=O)c2ccc3c(c2)OCCO3)c1 | 6.2 µM (active)
Cc1nonc1C(=O)N/N=C/c1cccc(O)c1 | 13.5 µM (active)
COc1ccc(CC(=O)Nc2ccc(-c3cn4ccccc4n3)cc2)cc1 | > 112 µM (not active)
O=C(CN(c1cccc([N+](=O)[O-])c1)S(=O)(=O)c1ccccc1)NCc1ccccc1 | > 112 µM (not active)
CC/C(=N\NC(=O)Nc1ccccc1)c1ccccc1 | > 112 µM (not active)
CCOc1ccc(CCNC(=O)c2oc3c(c2C)-c2n[nH]cc2CC3)cc1OCC | > 112 µM (not active)
CCC1CCCN1Cn1cnc2c3cc(Cl)ccc3nc-2c1O (stereo not given) | > 112 µM (not active)
CCCc1noc2c1C(c1ccoc1)C(C#N)=C(N)N2 (stereo not given) | > 112 µM (not active)
COCCCN(C(=O)Cc1ccc(Cl)c(Cl)c1)c1c(N)n(Cc2ccccc2)c(=O)[nH]c1=O | > 112 µM (not active)
